Source of measurements: ChEMBL document CHEMBL5236596

target: Glucocorticoid receptor (Homo sapiens); test: Modulation of glucocorticoid receptor (unknown origin) transfected in human HeLa cells assessed as transrepression by measuring inhibition of TNF-alpha induced NF-kappaB signalling incubated for 18 hrs by dual-luciferase reporter based assay; format: cell-based
Sequence (P04150 whole entry): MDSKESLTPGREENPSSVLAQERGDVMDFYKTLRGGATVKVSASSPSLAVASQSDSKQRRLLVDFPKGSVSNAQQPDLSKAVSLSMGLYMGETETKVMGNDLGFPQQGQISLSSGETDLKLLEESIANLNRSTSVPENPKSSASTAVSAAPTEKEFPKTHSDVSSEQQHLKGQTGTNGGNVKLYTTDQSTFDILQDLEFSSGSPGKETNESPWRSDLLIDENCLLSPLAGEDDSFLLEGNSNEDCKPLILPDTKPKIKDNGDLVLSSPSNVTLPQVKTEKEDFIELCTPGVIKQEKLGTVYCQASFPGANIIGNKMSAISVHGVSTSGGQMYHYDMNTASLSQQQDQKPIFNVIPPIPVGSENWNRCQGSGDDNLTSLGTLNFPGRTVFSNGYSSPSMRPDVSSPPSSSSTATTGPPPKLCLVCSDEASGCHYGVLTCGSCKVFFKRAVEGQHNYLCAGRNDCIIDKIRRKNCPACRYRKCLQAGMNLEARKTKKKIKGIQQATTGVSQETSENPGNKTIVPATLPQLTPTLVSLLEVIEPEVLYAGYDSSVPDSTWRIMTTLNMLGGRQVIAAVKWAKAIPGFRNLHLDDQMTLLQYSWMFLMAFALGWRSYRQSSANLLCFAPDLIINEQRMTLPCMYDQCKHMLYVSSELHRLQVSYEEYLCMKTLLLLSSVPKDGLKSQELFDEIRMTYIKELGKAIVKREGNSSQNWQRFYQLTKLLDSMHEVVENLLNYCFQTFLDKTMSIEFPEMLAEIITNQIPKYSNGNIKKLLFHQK
pIC50: −log10 of the molar value.
QUANTITY_MEASURED: pIC50

SMILES_CODE	MEASURED
COc1cc(C)c(Cl)cc1S(=O)(=O)Nc1ccc2c(c1)CCCN2C(=O)c1ccc(C)cc1F	< 5.00
O=C(c1ccco1)N1CCCc2cc(N(S(=O)(=O)Cc3ccccc3)S(=O)(=O)Cc3ccccc3)ccc21	< 4.30
O=C(c1ccco1)N1CCCc2cc(NS(=O)(=O)c3cccs3)ccc21	< 5.00
COC(=O)c1ccc(S(=O)(=O)N(c2ccc3c(c2)CCCN3C(=O)c2ccco2)S(=O)(=O)c2ccc(C(=O)OC)cc2)cc1	< 4.30
O=C(c1ccco1)N1CCCc2cc(N(S(=O)(=O)c3ccc(Br)cc3)S(=O)(=O)c3ccc(Br)cc3)ccc21	< 5.00
O=C(c1ccco1)N1CCCc2cc(N(S(=O)(=O)c3ccc(C(F)(F)F)cc3)S(=O)(=O)c3ccc(C(F)(F)F)cc3)ccc21	< 4.30
